# maps each entry to its TGI
System: HCT-116 colon
Assay: NCI tumour cell line growth inhibition, 48 h
Give the quantity in µM, number only.

# example entries with known answers
COMPOUND: CC(C)(Cl)C(Br)CCC(=CCCl)CBr (mixture of isomers)
UNIT_DESCRIPTOR: µM
TGI: 3.67

COMPOUND: O=C1c2cccnc2-c2nccc3c2c1nc1cc(Br)ccc13
UNIT_DESCRIPTOR: µM
TGI: 0.0762

COMPOUND: O=C(CN(c1ccccc1)c1ccccc1)n1nnc2ccccc21
UNIT_DESCRIPTOR: µM
TGI: 84.7

COMPOUND: CC(C)(C)c1cc(C(O)(C(F)(F)F)C(F)(F)F)c2c(c1)C(C(F)(F)F)(C(F)(F)F)OC(C(C)(C)C)N2 (stereo unspecified)
UNIT_DESCRIPTOR: µM
TGI: 12.8

Now for another entry.
Need TGI, item Br[C](Br)(Br)[Hg][c]1ccccc1
47.9

====

Listing: TGI of selected compounds
Test system: U251 CNS
Assay: NCI tumour cell line growth inhibition, 48 h

Sample records with TGI:
COMPOUND: CC(=O)OCC1OC(n2c3c(cc(C#N)c2=S)CCCCC3)C(OC(C)=O)C(OC(C)=O)C1OC(C)=O (configuration not stated)
TARGET_OR_SYSTEM: U251 CNS
TGI: > 100 µM
//
COMPOUND: O=C(O)C1C(Br)(c2ccccc2)C1(Br)c1ccccc1 (configuration not stated)
TARGET_OR_SYSTEM: U251 CNS
TGI: > 100 µM
//
COMPOUND: C=C1C(=O)C=C[C@]2(C)CC[C@H]3C(=C)C(=O)O[C@@H]3[C@@H]12
TARGET_OR_SYSTEM: U251 CNS
TGI: 5.75 µM
//
COMPOUND: CCC/C(Cl)=N\OC(=O)Nc1ccc(OC(F)(F)F)cc1
TARGET_OR_SYSTEM: U251 CNS
TGI: > 58.1 µM
//
COMPOUND: C=C(Cl)C(C)(Cl)CCC(Br)C(C)(C)Cl (configuration not stated)
TARGET_OR_SYSTEM: U251 CNS
TGI: 29.8 µM
//
COMPOUND: ClCc1cccc(Cn2cnc3nc(Cl)nc(Cl)c32)c1
TARGET_OR_SYSTEM: U251 CNS
TGI: 2.38 µM
//
COMPOUND: C#C[C@]1(O)CC[C@H]2[C@@H]3CCC4=C/C(=N/OC(=O)c5cccc6c(=O)c7ccccc7[nH]c56)CC[C@@H]4[C@H]3CC[C@@]21C
TARGET_OR_SYSTEM: U251 CNS
TGI: > 100 µM
//
COMPOUND: O=NN(CCCl)C(=O)NC1CCC(O)CC1 (configuration not stated)
TARGET_OR_SYSTEM: U251 CNS
TGI: > 100 µM

Give the measured TGI of C/C(CC(=O)NCCc1ccccc1)=N\NC(=O)C[n+]1ccccc1 .
> 100 µM

Would you kindly repeat that for CCCSc1nc(COC(=O)NC)c(COC(=O)NC)n1C ?
> 100 µM

Please answer likewise for Nc1nc(Cl)cc(NCC2(CO)CCCC2)n1
> 100 µM

Same question for CCOC(=O)NC(Nc1cccc(C(F)(F)F)c1)(C(F)(F)F)C(F)(F)F please.
> 100 µM

====

Test system: NCI-H522 lung
Assay: NCI tumour cell line growth inhibition, 48 h; in the data active = GI50 below about 0.43 µM; inactive = the rest
# valid calls are true (1) = active, false (0) = inactive; nothing else

These recorded examples may help you get a feel for the data.
RECORD_SMILES: CN(C)CCN1C(=O)c2ccc3c4c(ccc(c24)C1=O)C(=O)N(CCN=C=S)C3=O
TARGET_OR_SYSTEM: NCI-H522 lung
ANSWER_LABEL: true (1)

RECORD_SMILES: O=C(/C=C\c1ccc(NCc2ccc(C(=O)O)cc2)cc1)CCl
TARGET_OR_SYSTEM: NCI-H522 lung
ANSWER_LABEL: false (0)

Attention now shifts to the item below.
// return assay outcome for COc1cc(C(=O)c2cc(C)c3[nH]c4ccc(C)cc4c3c2C)cc(OC)c1OC
true (1)
